biological target: delF508-CFTR (Homo sapiens, UniProt P13569, DEL508-508); construct: expressed in transfected cells; test: Measurement of delF508-CFTR functional activity in primary human bronchial epithelial cells (HBECs) using MTECC-24 assay; assay type: cell-based; conditions: test compound (24 h) with potentiator (S)-3-amino-6-methoxy-N-(3,3,3-trifluoro-2-hydroxy-2-methylpropyl)-5-(trifluoromethyl)picolinamide, relative to 2 μM 3-(6-(1-(2,2-difluorobenzo[d][1,3]dioxol-5-yl)cyclopropane-1-carboxamido)-3-methylpyridin-2-yl)benzoic acid plus 0.5 μM N-(2,4-di-tert-butyl-5-hydroxyphenyl)-4-oxo-1,4-dihydroquinoline-3-carboxamide
Sequence (P13569 with tags, fused parts or gaps DEL508-508): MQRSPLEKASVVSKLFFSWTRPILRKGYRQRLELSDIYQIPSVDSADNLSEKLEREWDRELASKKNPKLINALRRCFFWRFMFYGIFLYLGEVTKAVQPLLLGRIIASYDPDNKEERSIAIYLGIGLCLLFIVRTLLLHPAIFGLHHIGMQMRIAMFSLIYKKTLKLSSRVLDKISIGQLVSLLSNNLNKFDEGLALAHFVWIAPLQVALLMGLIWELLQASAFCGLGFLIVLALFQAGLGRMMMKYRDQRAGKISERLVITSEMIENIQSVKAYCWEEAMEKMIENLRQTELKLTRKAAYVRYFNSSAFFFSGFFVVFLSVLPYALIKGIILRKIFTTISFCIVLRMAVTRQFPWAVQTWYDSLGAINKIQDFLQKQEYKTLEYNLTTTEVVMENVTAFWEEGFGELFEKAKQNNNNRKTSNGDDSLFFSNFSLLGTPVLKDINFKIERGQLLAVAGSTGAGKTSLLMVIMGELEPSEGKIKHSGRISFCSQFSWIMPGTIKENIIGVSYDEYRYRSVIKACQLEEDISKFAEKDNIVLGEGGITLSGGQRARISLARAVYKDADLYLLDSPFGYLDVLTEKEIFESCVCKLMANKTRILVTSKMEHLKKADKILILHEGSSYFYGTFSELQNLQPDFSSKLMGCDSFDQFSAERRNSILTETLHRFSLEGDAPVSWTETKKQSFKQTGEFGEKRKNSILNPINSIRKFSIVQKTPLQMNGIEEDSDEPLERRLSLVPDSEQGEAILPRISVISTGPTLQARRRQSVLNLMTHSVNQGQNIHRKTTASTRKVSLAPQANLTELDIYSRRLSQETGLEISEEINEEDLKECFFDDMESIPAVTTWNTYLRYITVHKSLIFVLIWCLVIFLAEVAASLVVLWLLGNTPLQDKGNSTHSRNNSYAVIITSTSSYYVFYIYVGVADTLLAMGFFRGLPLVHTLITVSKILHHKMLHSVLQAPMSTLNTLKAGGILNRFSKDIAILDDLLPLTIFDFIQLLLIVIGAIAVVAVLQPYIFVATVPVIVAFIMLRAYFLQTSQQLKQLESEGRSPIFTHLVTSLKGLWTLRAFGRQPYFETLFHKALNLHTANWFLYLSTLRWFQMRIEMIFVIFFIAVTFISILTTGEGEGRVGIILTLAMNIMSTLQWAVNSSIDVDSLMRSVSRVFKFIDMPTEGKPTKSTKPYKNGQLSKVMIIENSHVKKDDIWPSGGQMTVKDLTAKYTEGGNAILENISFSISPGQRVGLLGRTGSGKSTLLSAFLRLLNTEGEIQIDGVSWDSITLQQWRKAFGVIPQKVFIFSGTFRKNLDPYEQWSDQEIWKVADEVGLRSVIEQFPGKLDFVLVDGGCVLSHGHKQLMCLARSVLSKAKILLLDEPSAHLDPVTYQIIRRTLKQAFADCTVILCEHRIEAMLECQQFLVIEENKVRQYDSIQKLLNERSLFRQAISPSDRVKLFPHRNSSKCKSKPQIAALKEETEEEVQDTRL
Experimental Readout: MTECC24 CFHBEC Amax % (%)
Give a bare numeral; the unit % is implied.

O=C(O)CCCN1CCCCc2ccccc2-c2nc(ccc2C(F)(F)F)NS(=O)(=O)c2cccc1n2 123.2
CC(C)(CN1CCCCCc2ccccc2-c2nc(ccc2C(F)(F)F)NS(=O)(=O)c2cccc1n2)C(=O)O 175.8
CC(C)(CN1CCCCCCc2ccccc2-c2nc(ccc2C(F)(F)F)NS(=O)(=O)c2cccc1n2)C(=O)O 279.3
CC(C)(CO)CN1CCCCCc2ccccc2-c2nc(ccc2C(F)(F)F)NS(=O)(=O)c2cccc1n2 132.0
O=C(O)CCN1CCCCCc2ccccc2-c2nc(ccc2Cl)NS(=O)(=O)c2cccc1n2 56.7

IN: Respond only with MTECC24 CFHBEC Amax % recorded for O=C(O)CCN1CCCCCc2ccccc2-c2nc(ccc2C(F)(F)F)NS(=O)(=O)c2cccc1n2
OUT: 90.0

IN: Please look at this compound and report its MTECC24 CFHBEC Amax %: CC(C)(CO)CN1CCCCCCc2ccccc2-c2nc(ccc2C(F)(F)F)NS(=O)(=O)c2cccc1n2
OUT: 171.1

IN: State, in one line, measured MTECC24 CFHBEC Amax % of O=S1(=O)Nc2ccc(C(F)(F)F)c(n2)-c2ccccc2CCCCCN(CCO)c2cccc1n2
OUT: 213.1

---

As shown below, each of these molecules has a reported Emax value.
biological target: delF508-CFTR (Homo sapiens, UniProt P13569, DEL508-508); construct: expressed in transfected cells; assay: Measurement of delF508-CFTR-HRP surface expression in CFBE41o- cells; format: cell-based; conditions: CFBE41o-; efficacy relative to reference compound 3-(6-(1-(2,2-difluorobenzo[d][1,3]dioxol-5-yl)cyclopropane-1-carboxamido)-3-methylpyridin-2-yl)benzoic acid; read-out: DelF508-CFTR-HRP Amax %
Your answer should be a plain number; it is taken to be in %.

O=S1(=O)Nc2ccc(C(F)(F)F)c(n2)-c2cccnc2OCCCCCOc2cccc1n2 197

IN: Provide Emax, recorded with delF508-CFTR (Homo sapiens, UniProt P13569, DEL508-508), of CCOC(=O)CN1CCCCOc2ccccc2-c2nc(ccc2C(F)(F)F)NS(=O)(=O)c2cccc1n2
OUT: 361

IN: Please report Emax with delF508-CFTR (Homo sapiens, UniProt P13569, DEL508-508) for item O=S1(=O)Nc2ccc(C(F)(F)F)c(n2)-c2ccccc2CCCCCN(CCN2C[C@H](O)[C@@H](O)C2)c2cccc1n2 .
OUT: 308

IN: Please indicate recorded Emax of COC(=O)CNCCN1CCCCCc2ccccc2-c2nc(ccc2C(F)(F)F)NS(=O)(=O)c2cccc1n2 measured with delF508-CFTR (Homo sapiens, UniProt P13569, DEL508-508).
OUT: 488
